system: HT-29; assay: Growth inhibition of human HT-29 cells after 48 hrs by MTT assay; type: functional; conditions: HT-29, 48 h
Quick list: GI50 per entry.
Field format: number, assumed nM, no unit text.

Example entries begin here.
# COMPOUND, OBSERVED PROPERTY, OBSERVED
data = [
    ("COc1c(C)c(OC)c(OC)c2c1C[C@H]1CN(C(=O)OC(C)C)CC(=O)N1[C@H]2COCc1ccccc1 (relative stereo)", "GI50", 195),
    ("COc1c(C)c(OC)c(OC)c2c1C[C@@H]1CN(C(=O)OC(C)C)CC(=O)N1[C@H]2COCc1ccccc1 (relative stereo)", "GI50", 10500),
]

--- query ---
Lab note: compound COc1cc2c(cc1O)CCN[C@]21CS[C@@H]2c3c(OC(C)=O)c(C)c4c(c3[C@H](COC1=O)N1[C@@H]2[C@H]2c3c(cc(C)c(OC)c3O)C[C@@H]([C@@H]1O)N2C)OCO4 tested on HT-29; recorded GI50 was 51.7

---

Quick list: log10(GI50) per entry.
system: A549; assay: Growth inhibition of human A549 cells after 48 hrs by MTT assay; format: functional; conditions: A549, 48 h
Scale type: logarithmic (base 10). Underlying GI50 unit: µM.

Example entries begin here.
# COMPOUND, log10(GI50)
measured = [
    ("COc1c(C)c(OC)c(OC)c2c1C[C@H]1[C@@H](O)N(C(=O)OC(C)(C)C)CC(=O)N1[C@H]2COCc1ccccc1 (relative stereo)", 0.68),
    ("COc1c(C)c(OC)c(OC)c2c1C[C@H]1[C@H](C#N)N3C([C@@H]4O[C@H]5c6ccccc6[C@H](C#N)N5C[C@H]3c3c(OC)c(OC)c(C)c(OC)c34)[C@@H]2N1C (relative stereo)", 1.06),
    ("COc1c(C)c(OC)c(OC)c2c1C[C@@H]1CN(C(=O)OC(C)C)CC(=O)N1[C@H]2COCc1ccccc1 (relative stereo)", 0.91),
    ("COc1c(C)c(OC)c2c(c1OC)[C@@H]1CN3C(=O)c4ccccc4[C@@H]3O[C@H]2C2=CN(C(=O)OC(C)C)CC(=O)N21 (relative stereo)", 0.46),
    ("COc1c(C)c(OC)c(OC)c2c1C[C@H]1CN(C(=O)OC(C)C)CC(=O)N1[C@H]2COC(=O)/C=C/c1ccccc1 (relative stereo)", 0.96),
    ("COc1c(C)c(OC)c(OC)c2c1C[C@H]1CNCC(=O)N1[C@H]2COCc1ccccc1 (relative stereo)", 1.13),
]

For record COc1cc2c(cc1O)CCN[C@]21CS[C@@H]2c3c(OC(C)=O)c(C)c4c(c3[C@H](COC1=O)N1[C@@H]2[C@H]2c3c(cc(C)c(OC)c3O)C[C@@H]([C@@H]1O)N2C)OCO4 the listed log10(GI50) is -0.90

For record COc1c(C)c(OC)c(OC)c2c1C[C@H]1CN(C)CC(=O)N1[C@H]2COCc1ccccc1 (relative stereo) the listed log10(GI50) is 1.10

For record COc1c(C)c(OC)c(OC)c2c1C[C@H]1CN(C(=O)OC(C)C)CC(=O)N1[C@H]2COCc1ccccc1 (relative stereo) the listed log10(GI50) is -0.35

For record COc1c(C)c(OC)c(OC)c2c1C[C@H]1[C@@H](O)N(C(=O)OC(C)C)CC(=O)N1[C@H]2COCc1ccccc1 (relative stereo) the listed log10(GI50) is 0.75
